Tested on: Candida albicans
Assay: Inhibition of biofilm formation of Candida albicans assessed as reduction in cell viability of biofilm after 24 hrs by XTT staining based spectrophotometry
Type: functional
Details: read-out: ED50 (the source's name)
pEC50: −log10 of the molar value.
The threshold is inclusive: pEC50 of exactly 4 counts as true; values below receive false.

Could you verify whether the entry Cc1c2c3cc(NC(=N)N)ccc3nc-2n(C)c2ccccc12.Cl.Cl shows pEC50 of no less than 4?
false

Please indicate if the recorded pEC50 for Cc1c2c3cc(N)ccc3nc-2n(C)c2ccccc12 meets or exceeds 4.
true

Quick check: does Cc1c2c3cc(NC(=O)CNC(=N)N)ccc3nc-2n(C)c2ccccc12.Cl.Cl.Cl have pEC50 greater than or equal to 4?
true

Check the entry Cc1c2ccccc2nc2c1c1cc(NC(=O)[C@@H]3CCCN3)ccc1n2CCN(C)C : does pEC50 equal or exceed 4?
true

For this molecule, is measured pEC50 4 or higher? Cc1c2ccccc2nc2c1c1cc(NC(=O)CN)ccc1n2CCN(C)C.Cl.Cl.Cl
true

Check if pEC50 >= 4 (inclusive). Item: Cc1c2ccccc2nc2c1c1cc(N)ccc1n2CCN(C)C
true

Decide: pEC50 of Cc1c2ccccc2nc2c1c1cc(NC(=N)N)ccc1n2CCN(C)C.Cl.Cl.Cl.Cl >= 4?
false
